target: human β2‐adrenoceptor (Homo sapiens); format: binding; conditions: this study; read-out: β2‐adrenoceptor affinity
Sequence (P07550 whole entry): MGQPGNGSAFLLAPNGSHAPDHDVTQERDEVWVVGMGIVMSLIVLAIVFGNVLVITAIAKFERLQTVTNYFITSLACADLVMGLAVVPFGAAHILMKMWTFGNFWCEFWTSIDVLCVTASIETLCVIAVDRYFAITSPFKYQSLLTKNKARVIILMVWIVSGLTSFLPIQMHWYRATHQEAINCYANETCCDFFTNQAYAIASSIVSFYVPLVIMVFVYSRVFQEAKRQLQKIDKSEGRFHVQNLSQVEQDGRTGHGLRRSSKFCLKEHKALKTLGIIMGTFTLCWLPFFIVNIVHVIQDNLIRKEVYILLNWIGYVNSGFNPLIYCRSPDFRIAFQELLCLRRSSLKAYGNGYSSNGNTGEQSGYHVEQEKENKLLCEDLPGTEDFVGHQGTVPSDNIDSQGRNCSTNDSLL
Assign Kd to each entry below.
Write the answer as a number in nM, unit excluded.

The recorded Kd for entry Cc1ccc(Sc2ccccc2N2CCNCC2)c(C)c1 equals 178

// recorded Kd for CN1CCc2cccc(Cl)c2CC1 : 250

----------
molecular target: human β2‐adrenoceptor (Homo sapiens); format: binding; conditions: ^3H‐CGP12177; log value; read-out: IC50 (log) β2, IC50>top concentration used (converted)
Consider the following molecules; for each one, report its IC50.

Recorded result, O=C1CCC(=O)N1C[C@H]1CC[C@H]2CN(c3ncccn3)CCN2C1 [sunepitron] , IC50: > 1000 µM

# IC50 (molecule: Cc1nc2n(c(=O)c1CCN1CCC(c3noc4cc(F)ccc34)CC1)CCCC2O (stereo not shown) [paliperidone] ) is > 31.6 µM

// CCN1CCCC1CNC(=O)c1cc(S(N)(=O)=O)ccc1OC (stereo not shown) [sulpiride] : IC50 value = > 1000 µM

Measured IC50 of c1ccc2c(c1)OCC(C1=NCCN1)O2 (stereo not shown) [idazoxan] : > 1000 µM

Entry Fc1ccc([C@@H]2CCNC[C@H]2COc2ccc3c(c2)OCO3)cc1 [paroxetine] — recorded IC50 = > 31.6 µM

Given item CN(C)CCCN1c2ccccc2CCc2ccccc21 [imipramine] , the value recorded as its IC50 is > 100 µM

// field: IC50; key: OCCN1CCN(CCC=C2c3ccccc3Sc3ccc(C(F)(F)F)cc32)CC1 [flupenthixol] ; value = > 10 µM

The value of IC50 measured for the molecule CC(C(O)c1ccc(O)cc1)N1CCC(Cc2ccccc2)CC1 (stereo not shown) [ifenprodil] turned out to be > 10 µM

Lab note: CN(C)CC/C=C1\c2ccccc2CSc2ccccc21 [dosulepin] gave IC50 of > 100 µM

Per the record, O=C1NCN(c2ccccc2)C12CCN(CC1COc3ccccc3O1)CC2 (stereo not shown) [spiroxatrine] has IC50 of > 31.6 µM

Entry O=C1[C@@H]2[C@H]3CC[C@H](C3)[C@@H]2C(=O)N1C[C@@H]1CCCC[C@H]1CN1CCN(c2nsc3ccccc23)CC1 [lurasidone] , IC50 reported as > 10 µM

IC50 for CN(CCCN1c2ccccc2CCc2ccccc21)CC(=O)c1ccc(Cl)cc1 [lofepramine] is > 100 µM

Value of measured IC50 for the entry CC(CN1c2ccccc2Sc2ccccc21)N(C)C (stereo not shown) [promethazine] : > 100 µM
